Target: human TNFα R31Q mutant (human, UniProt P01375 77-233)
Sequence (P01375 77-233 R107Q): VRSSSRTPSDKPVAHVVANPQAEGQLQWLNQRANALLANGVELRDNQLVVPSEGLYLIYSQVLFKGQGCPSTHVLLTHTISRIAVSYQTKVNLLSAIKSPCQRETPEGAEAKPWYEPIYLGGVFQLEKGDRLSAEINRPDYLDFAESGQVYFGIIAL
Experiment: ELISA on chimeric/mutant TNFα
parameter.measured: binding result

binder	assay.value
269 (antibody, human IgG1, V domains shown, XENOMAX derived, recombinant human IgG1 kappa; also called 269Ab; SC269) VH: EVQLVESGGGLIQPGGSLRLSCAASEFTVSRNYMSWVRQAPGKGLEWVSVIYSGDRTYYADSVKGRFTISRDNSKNTLYLQMNSLRAEDTAVYYCARGEGGFDYWGQGTLVTVSS VL: EIVMTQSPATLSVSPGERATLSCRASQSVSSNLAWYQQKPGQAPRLLIHGASIRATGLPARFSGSGSGTEFTLTISSLQSEDFAVYYCQQYNYWWTFGQGTKVEIK	binds
Rabbit R014 (AB-TNFα-R014) (antibody, rabbit IgG1, V domains shown, Fully rabbit antibody, rabbit IgG1 heavy and kappa constant regions; cloned from well 7A4; also called RO14; Rabbit 014) VH: QSLEESGGRLVTPGTPLTLTCTVSGIDLSSNTMGWFRRAPGKGLEWIGIIISSGTTYYASWVKGRFTISKTSTTVDLKITRPTTEDTATYFCARGWYEFNLWGPGTLVTVSS VL: DVVMTQTPASVEAAVGGTVTIKCQASENIDILLAWYQQKVGQPPKLLIYRASKLASGAPSRFSGSGSGTEFTLTISDLECGDAATYYCQSNVGSTARSSYGNAFGGGTEVVVK	binds

Numbers sourced from patent US20050049402A1.
